# tested_system: human LPA1 (Homo sapiens)
# Construct: the full-length cDNA for human LPA1 was obtained by PCR of the reverse transcription reaction
# test_method_notes: LPA1 calcium flux assay
# condition_details: human LPA1 expressing CHO cells, stimulated with 10 nM LPA; read-out: HLPA1 Ca Flux IC50
pIC50: −log10 of the molar value.
parameter_measured: pIC50

Reported pIC50 for CCOc1ccc(-c2cccc(Nc3c(C)noc3-c3ccc(-c4ccc(C5(C(=O)O)CC5)cc4)cc3)n2)cn1 [Compound 1-87] was 6.00 to 6.52

Reported pIC50 for Cc1noc(-c2ccc(-c3ccc(C4(C(=O)O)CC4)cc3)cc2)c1Nc1cncc(-c2ccccc2)c1 [Compound 1-107] was > 6.52

====

# tested_system: human LPA1 (Homo sapiens)
# Construct: the full-length cDNA for human LPA1 was obtained by PCR of the reverse transcription reaction
# test_method_notes: LPA1 calcium flux assay
# condition_details: human LPA1 expressing CHO cells, stimulated with 10 nM LPA; read-out: HLPA1 Ca Flux IC50
# IC50 listing for each entry below

Reported IC50 for Cc1noc(-c2ccc(-c3ccc(C4(C(=O)O)CC4)cc3)cc2)c1C1OC1CCc1ccccc1 (stereo not drawn) was < 300 nM

Reported IC50 for COc1ncccc1-c1cccc(Nc2c(C)noc2-c2ccc(-c3ccc(C4(C(=O)O)CC4)cc3)cc2)n1 was < 300 nM

Reported IC50 for Cc1noc(-c2ccc(-c3ccc(C4(C(=O)O)CC4)cc3)cc2)c1Nc1ccnc(-c2ccccc2)c1 was 300 to 1000 nM

Reported IC50 for Cc1noc(-c2ccc(-c3ccc(CC(=O)O)cc3)cc2)c1C(O)c1cn(Cc2ccc(Cl)c(Cl)c2)nn1 (stereo not drawn) was 1000 to 50000 nM

Reported IC50 for Cc1noc(-c2ccc(-c3ccc(C4(C(=O)O)CC4)cc3)cc2)c1Cn1ccc(-c2ccc(Br)cc2)n1 was 1000 to 50000 nM

Reported IC50 for Cc1noc(-c2ccc(-c3ccc(C4(C(=O)O)CC4)cc3)cc2)c1C(O)c1nnc(Cc2ccccc2)o1 (single isomer, unassigned) [Compound 1-34] was < 300 nM

Reported IC50 for Cc1noc(-c2ccc(-c3ccc(C4(C(=O)O)CC4)cc3)cc2)c1Cc1nnc(-c2ccccc2)o1 was < 300 nM

Reported IC50 for Cc1noc(-c2ccc(-c3ccc(C4(C(=O)O)CC4)cc3)cc2)c1Nc1cncc(-c2cccc(C(F)(F)F)c2)c1 was < 300 nM

Reported IC50 for Cc1noc(-c2ccc(-c3ccc(C4(C(=O)O)CC4)cc3)cc2)c1Cn1cc(-c2ccccc2)nn1 was < 300 nM

====

# pIC50 listing for each entry below
# tested_system: human LPA1 (Homo sapiens, UniProt Q92633)
# Construct: the full-length cDNA for human LPA1 was obtained by PCR of the reverse transcription reaction
# Sequence (Q92633 whole entry): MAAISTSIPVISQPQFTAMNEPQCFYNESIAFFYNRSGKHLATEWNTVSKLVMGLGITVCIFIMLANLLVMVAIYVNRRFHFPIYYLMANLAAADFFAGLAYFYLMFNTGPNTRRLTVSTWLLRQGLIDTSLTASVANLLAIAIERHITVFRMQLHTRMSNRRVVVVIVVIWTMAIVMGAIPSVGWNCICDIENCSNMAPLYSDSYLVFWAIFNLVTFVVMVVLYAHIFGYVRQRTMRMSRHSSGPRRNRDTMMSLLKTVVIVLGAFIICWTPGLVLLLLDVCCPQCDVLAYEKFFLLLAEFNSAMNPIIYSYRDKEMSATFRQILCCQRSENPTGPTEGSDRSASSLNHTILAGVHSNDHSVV
# test_method_notes: LPA1 calcium flux assay
# condition_details: human LPA1 expressing CHO cells, stimulated with 10 nM LPA; read-out: HLPA1 Ca Flux IC50
pIC50: −log10 of the molar value.

Reported pIC50 for Cc1noc(-c2ccc(-c3ccc(C4(C(=O)O)CC4)cc3)cc2)c1Nc1cccc(N2CCOCC2)n1 [Compound 1-124] was > 6.52

Reported pIC50 for Cc1noc(-c2ccc(-c3ccc(C4(C(=O)O)CC4)cc3)cc2)c1Nc1nccc(-c2ccccc2)n1 [Compound 1-115] was > 6.52

Reported pIC50 for Cc1noc(-c2ccc(-c3ccc(C4(C(=O)O)CC4)cc3)cc2)c1[C@@H](O)c1cn([C@H](C)c2ccccc2)nn1 [Compound 1-67] was > 6.52

Reported pIC50 for Cc1noc(-c2ccc(-c3ccc(CCC(=O)O)cc3)cc2)c1C(O)c1cn(Cc2ccccc2)nn1 (stereo not drawn) [Compound 1-49] was > 6.52

Reported pIC50 for Cc1noc(-c2ccc(-c3ccc(C4(C(=O)O)CC4)cc3)cc2)c1Nc1cccc(-c2ccccc2C(F)(F)F)n1 [Compound 1-96] was > 6.52

Reported pIC50 for Cc1noc(-c2ccc(-c3ccc(C4(CC(=O)O)CC4)cc3)cc2)c1NC(C)Cc1ccc(OCc2ccc(C(F)(F)F)cc2)cc1 (stereo not drawn) [Compound 1-45] was 6.00 to 6.52
